DR/DR LNA listing for selected molecules.
- assayRemarks: Probe fluorescence ratio response to linolenic acid relative to ADIFAB2
- Type: binding
- conditionInfo: response relative to ADIFAB2
Form field (numeric): enter value without unit.

Examples from the recorded data:
23T1, 72A (protein, listed as Rattus norvegicus, PEPTIDE (1)...(131) wild-type rat intestinal fatty acid binding protein) AFDGTWKVDRNENYEKFMEKMGTNVVKRKLGAHDNLKLTITQEGNKFTVKESSNFRNIDVVFELGVDFAYSAADGTELTGTWTMEGNKLVGKFKRVDNGKELIAVREISGNELIQTYTYEGVEAKRIFKKE :: 0.21
31M2, 72A (protein, listed as Rattus norvegicus, PEPTIDE (1)...(131) wild-type rat intestinal fatty acid binding protein) AFDGTWKVDRNENYEKFMEKMGINVVKRKLMAHDNLKLTITQEGNKFTVKESSNFRNIDVVFELGVDFAYSAADGTELTGTWTMEGNKLVGKFKRVDNGKELIAVREISGNELIQTYTYEGVEAKRIFKKE :: 0.57
49D1, 72A (protein, listed as Rattus norvegicus, PEPTIDE (1)...(131) wild-type rat intestinal fatty acid binding protein) AFDGTWKVDRNENYEKFMEKMGINVVKRKLGAHDNLKLTITQEGNKFTDKESSNFRNIDVVFELGVDFAYSAADGTELTGTWTMEGNKLVGKFKRVDNGKELIAVREISGNELIQTYTYEGVEAKRIFKKE :: 0.30

query: Name the reported DR/DR LNA value associated with the molecule 72G 74F (protein, listed as Rattus norvegicus, PEPTIDE (1)...(131) wild-type rat intestinal fatty acid binding protein) AFDGTWKVDRNENYEKFMEKMGINVVKRKLGAHDNLKLTITQEGNKFTVKESSNFRNIDVVFELGVDFAYSGAFGTELTGTWTMEGNKLVGKFKRVDNGKELIAVREISGNELIQTYTYEGVEAKRIFKKE
result: 1.970

query: Check 31T2, 72A (protein, listed as Rattus norvegicus, PEPTIDE (1)...(131) wild-type rat intestinal fatty acid binding protein) AFDGTWKVDRNENYEKFMEKMGINVVKRKLTAHDNLKLTITQEGNKFTVKESSNFRNIDVVFELGVDFAYSAADGTELTGTWTMEGNKLVGKFKRVDNGKELIAVREISGNELIQTYTYEGVEAKRIFKKE too.
result: 0.91

query: Check 72H 73P 74L (protein, listed as Rattus norvegicus, PEPTIDE (1)...(131) wild-type rat intestinal fatty acid binding protein) AFDGTWKVDRNENYEKFMEKMGINVVKRKLGAHDNLKLTITQEGNKFTVKESSNFRNIDVVFELGVDFAYSHPLGTELTGTWTMEGNKLVGKFKRVDNGKELIAVREISGNELIQTYTYEGVEAKRIFKKE too.
result: 6.352

query: Check 38M 104S 115A 74F 72A (protein, listed as Rattus norvegicus, PEPTIDE (1)...(131) wild-type rat intestinal fatty acid binding protein) AFDGTWKVDRNENYEKFMEKMGINVVKRKLGAHDNLKMTITQEGNKFTVKESSNFRNIDVVFELGVDFAYSAAFGTELTGTWTMEGNKLVGKFKRVDNGKELISVREISGNELIATYTYEGVEAKRIFKKE too.
result: 1.615

query: Check 23V2, 72A (protein, listed as Rattus norvegicus, PEPTIDE (1)...(131) wild-type rat intestinal fatty acid binding protein) AFDGTWKVDRNENYEKFMEKMGVNVVKRKLGAHDNLKLTITQEGNKFTVKESSNFRNIDVVFELGVDFAYSAADGTELTGTWTMEGNKLVGKFKRVDNGKELIAVREISGNELIQTYTYEGVEAKRIFKKE too.
result: 1.35

query: Check 34K, 72A (protein, listed as Rattus norvegicus, PEPTIDE (1)...(131) wild-type rat intestinal fatty acid binding protein) AFDGTWKVDRNENYEKFMEKMGINVVKRKLGAHKNLKLTITQEGNKFTVKESSNFRNIDVVFELGVDFAYSAADGTELTGTWTMEGNKLVGKFKRVDNGKELIAVREISGNELIQTYTYEGVEAKRIFKKE too.
result: 1.33

query: Check 38E1, 72A (protein, listed as Rattus norvegicus, PEPTIDE (1)...(131) wild-type rat intestinal fatty acid binding protein) AFDGTWKVDRNENYEKFMEKMGINVVKRKLGAHDNLKETITQEGNKFTVKESSNFRNIDVVFELGVDFAYSAADGTELTGTWTMEGNKLVGKFKRVDNGKELIAVREISGNELIQTYTYEGVEAKRIFKKE too.
result: 0.29
